- assay comment: gradient 5% acetonitrile 3 min, to 50% in 2 min, to 85% in 15 min, held 3 min, 100 µL/min
- settings: column: Zorbax Extend-C18 2.1 x 50 mm; eluents: water / acetonitrile, 0.1% formic acid
measurement type: RP-LC retention time (s)

The examples below pair each entry with its known result.
> print(dat)
                                   compound  endpoint.result
1  Cc1ccc(Sc2nccnc2N2CCCC(C(=O)Nc3cc(C)cc(C)c3)C2)cc1 (stereo not given)             1150
2  COc1ccc(Cl)cc1NS(=O)(=O)c1ccc(-c2nnc(C3CCC3)o2)o1              958
3  COc1ccc(C2=NC3(CCN(C(=O)Nc4ccc(Cl)cc4)CC3)NC2=O)cc1              835
4  Cc1nc(-c2cc(S(=O)(=O)NCC(=O)NC3CCCC3)c(C)s2)no1              774
5  CCNC(=O)NC1CCN(c2ccccc2)C1=O (stereo not given)              596
6  CCn1c(=O)sc2cc(S(=O)(=O)N3CCC(C(=O)NCc4ccco4)CC3)ccc21              792
7       Cn1nccc1-c1csc(S(=O)(=O)NC2CCCC2)c1              806
8  CC(C)S(=O)(=O)N1CCC(c2noc(-c3cccnc3)n2)C1 (stereo not given)              730

P. CNC(=O)C1CN(C(=O)Nc2cc(OC)cc(OC)c2)CC12CCCC2 (stereo not given)
Q. CC1CC(=O)c2cnc(N3CCN(c4ccccc4)CC3)nc2C1 (stereo not given)
Could you point out whether the larger RP-LC retention time belongs to P or to Q ? State your choice using its label. Q

----------
- assay comment: gradient 5% acetonitrile 3 min, to 50% in 2 min, to 85% in 15 min, held 3 min, 100 µL/min
- settings: column: Zorbax Extend-C18 2.1 x 50 mm; eluents: water / acetonitrile, 0.1% formic acid
measurement type: RP-LC retention time (s)

Examples from the recorded data:
> print(dat)
                                   compound      measurement.type  unit.spec  endpoint.result
1  O=C(CSc1ncnc2c1cnn2-c1ccc(F)cc1)Nc1nc2ccccc2s1  RP-LC retention time          s             1020
2  Cc1[nH]nc(-c2c(C)sc(C)c2S(=O)(=O)NCCCc2ccccc2)c1C  RP-LC retention time          s             1130
3  O=C(NCC(O)c1cccc2ccccc12)NC1CCCCC1 (stereo not given)  RP-LC retention time          s              781
4  O=C1CC(c2noc(CN3CCN(c4ccccn4)CC3)n2)CN1c1ccc(F)cc1 (stereo not given)  RP-LC retention time          s              576
5  Cc1nc2c(ccc3nc(NC(=O)c4ccc5c(c4)OCCO5)sc32)s1  RP-LC retention time          s              858

P. COc1ccc(CNC(=O)c2cc3c(=O)n(C)ccc3n2C)cc1
Q. Cc1cc(C)n(-c2ccc(C(=O)N3CCN(c4ccc(F)c(Cl)c4)CC3)nn2)n1
Compare RP-LC retention time: is it lower for P or for Q ? Identify your pick by its label. P
(P: 664 s, Q: 969 s)

P. CNC(=O)CCc1nc2ccccc2n(CC(=O)NCCCc2ccccc2)c1=O
Q. COc1ccc(C)cc1NC(=O)c1cc(C(C)C)n2nccc2n1
For the pair P and Q , which member has the lower RP-LC retention time number? Please indicate the selected item by its label. P
